Tested on: PC-3 prostate
Test: NCI tumour cell line growth inhibition, 48 h
property_name: TGI

Qu. TGI lookup needed for Cc1ccc(C2C3Cc4ccccc4C3=NN2c2ccc(S(=O)(=O)NC(=O)Nc3ccccc3)cc2)cc1 (centres undefined) , thanks.
Ans. 26.3 µM

Qu. Form field: reported TGI of O=C(CCl)Nc1ccc(Cc2ccc(NC(=O)CCl)cc2)cc1
Ans. 6.42 µM

Qu. Param item = Nc1no[n+]([O-])c1-c1nnc2c(n1)-c1ccccc1C2=O ; retrieve measured TGI.
Ans. 12.6 µM

Qu. Bench note: what TGI did S=C1Cc2c(-c3ccccc3)cc(-c3ccc(Cl)cc3)nc2-c2ccccc2N1 show?
Ans. 30.9 µM

Qu. Using the record for Cc1cc(S(=O)(=O)NC2=NCC(C)(C)CN2)c(S)cc1Cl , report its TGI.
Ans. > 100 µM

Qu. Fill in the blank: the reported TGI of CC(=O)c1ccc(Oc2c3ccccc3nc3occc23)cc1 is ____.
Ans. > 100 µM

Qu. I have this molecule here, C=CCN1C(=O)CS/C1=N\NC(=O)CSc1nc2ccccc2c(=O)n1CC , and I need its recorded TGI.
Ans. > 100 µM

Qu. So what does the record say about TGI for CC1N=C(c2ccccc2)OC1=O (centres undefined) ?
Ans. > 100 µM

Qu. So what does the record say about TGI for Cc1ccc2c(c1)CC1(C2)Cc2ccc(C)cc2C1=O (centres undefined) ?
Ans. > 100 µM

Qu. // returns reported TGI for input Nn1c(CCCCCCCCc2n[nH]c(=S)n2N)n[nH]c1=S
Ans. > 100 µM

Qu. Which TGI value is on record for NC(Cc1c[nH]c2cccc(F)c12)C(=O)O (centres undefined) ?
Ans. > 4500 µM

Qu. Given COC(=O)[C@H](C)N(C)C(=O)[C@H](C)N1[C@@H](c2ccccc2)COC1(C)C , state its recorded TGI.
Ans. > 100 µM

Qu. Query: TGI; subject: C1=C\CCCCN2CC[C@H]3[C@H](CCCC/C=C\CCCN4C[C@@H](CCCCC/1)C[C@@H]3C4)C2
Ans. 36.6 µM

Qu. Recorded TGI for O=C(CCN1CCCC1)c1ccc(Oc2ccc(F)cc2)cc1 , please?
Ans. > 100 µM

Qu. Can you look up the measured TGI of CCOC(=O)c1cc2c(n1Cc1cc(OC)cc(OC)c1)-c1oncc1CC2 for me?
Ans. > 100 µM

Qu. What TGI value was documented for this molecule, O=C(CC1Sc2ccccc2NC1=O)NNc1ccc(F)cc1 (centres undefined) ?
Ans. > 100 µM

* * *

Test system: UO-31 renal
Experiment: NCI tumour cell line growth inhibition, 48 h
property_name: TGI (µM)
Write the value in µM as a bare number.

Worked cases, TGI given:
Qu. Given the compound CCOC(=O)c1cc(C(=O)c2cc(OC)c(OC)c(OC)c2)n2ccc(-c3cc[n+](CC(=O)c4cc(OC)c(OC)c(OC)c4)cc3)cc12 , what is its reported TGI?
Ans. 26.5

Qu. Tell me the measured TGI of COC(=O)/C(C#N)=C/c1cc(C(C)(C)C)c(O)c(C(C)(C)C)c1 , please.
Ans. 10

Qu. Which measured TGI value corresponds to CCCCCCCCCCCCCCCCCCOCC(O)CO (stereo not given) ?
Ans. 25

Qu. Given the compound O=c1c2ccccc2nc(N/N=C/c2ccc(Cl)cc2)n1-c1ccccc1 , what is its reported TGI?
Ans. 88

Qu. So what's the measured TGI for this one? C=C1C(=O)O[C@H]2[C@H]1CC/C(COC(=O)N[C@H](Cc1c[nH]c3ccccc13)C(=O)OC)=C\CC[C@@]1(C)O[C@@H]21
Ans. 2.84

Qu. Suppose we examine the compound C[C@]12CC[C@H](O)CC1=CC[C@@H]1[C@@H]2CC[C@]2(C)NC(=O)/C(=C\c3ccccc3)C[C@@H]12 ; what TGI value has been reported?
Ans. 25.8

Continuing:
Qu. Looking for the measured TGI of CCC(=C(c1ccc(OCCN2CCCC2)cc1)c1ccc(OCCN2CCCC2)cc1)c1ccc(Cl)cc1 , can you help?
Ans. 0.965

Qu. Data request, read-out TGI, for Cc1ccc(O)c(C(c2cc(C)ccc2O)c2cc([N+](=O)[O-])ccc2O)c1
Ans. 21.5

* * *

Listed molecules paired with reported TGI
System: COLO 205 colon
Experiment: NCI tumour cell line growth inhibition, 48 h

Qu. Could you tell me which TGI is on file for Oc1cc(O)c2c(c1)OC(c1ccc(O)c(O)c1)C(O)C2c1c(O)cc(O)c2c1OC(c1ccc(O)c(O)c1)C(O)C2 (stereo not given) ?
Ans. > 100 µM

Qu. Request the reported TGI associated with NCCCNc1nc2ccccc2c2c(=O)c3cc(F)cc(Cl)c3sc12
Ans. 4.41 µM

Qu. Entry CCOC(=O)c1ccc(NC(=O)c2cccc(NC3=C(Cl)C(=O)N(Cc4ccccc4)C3=O)c2)cc1 has what TGI?
Ans. > 100 µM

Qu. Consider the molecule shown here: Cn1c(=O)[nH]c2c(c1=O)C(=O)CN2 What is its recorded TGI?
Ans. > 100 µM

Qu. Quick one: TGI of CC(=N\O)/C(C)=N/O.CC(=N\O)/C(C)=N/O.[Fe].[NH2-].c1c[nH]cn1 ?
Ans. > 100 µM

Further cases:
Qu. Param item = FC(F)(F)c1nc(Br)[nH]c1C(F)(F)F ; retrieve measured TGI.
Ans. > 100 µM

Qu. Need TGI, item COc1cc(-c2ccccc2)cn2c1nc1ccccc12
Ans. 39.1 µM

Qu. Entry CCN1C/C(=C\c2ccc(Cl)cc2)c2[nH]c(=O)c(C#N)c(-c3ccc(Cl)cc3)c2C1 : reported TGI = ?
Ans. > 100 µM

Qu. Look at this molecule and give its reported TGI. O=C(O)CCSC(=O)Nc1ccccc1
Ans. > 100 µM

Qu. Consider the molecule C[C@@H](Oc1cc(-c2cnn(C3CCNCC3)c2)cnc1N)c1c(Cl)cc(F)cc1Cl and give its measured TGI.
Ans. 2.45 µM

* * *

Test system: ACHN renal
Assay: NCI tumour cell line growth inhibition, 48 h; in the data active = GI50 below about 0.43 µM; inactive = the rest
// one of true (active), false (inactive), no free text

Recorded results for 8 compounds are shown here.
Qu. Recorded call for CC[Si](CC)(CC)OC1[C@@H](O[Si](CC)(CC)CC)[C@@H](CNC(=O)NC)O[C@H]1n1cnc2c(NC(=O)Nc3ccccc3)ncnc21 (stereo partly specified) ?
Ans. false

Qu. For OCC1OC(n2cnc3c(NCc4ccccc4O)ncnc32)C(O)C1O (stereo unspecified) , what call appears in the results of this test?
Ans. true

Qu. Outcome logged for CCOP(=O)(OCC)C(NC(c1ccccc1)c1ccccc1)c1ccc(C(C)C)cc1 (stereo unspecified) in this assay:
Ans. false

Qu. For CC(=O)/C=C/c1ccc(N(CCO)Cc2ccc(C(C)(C)C)cc2)cc1 , which call appears in the assay record?
Ans. false

Qu. Short answer needed: outcome of this test for Nc1nc(N)c(-c2ccc(Cl)c(Cl)c2)c(CP(Cl)(Cl)(Cl)Br)n1 ?
Ans. false

Qu. Assay result, entry O=C(c1ccc(Nc2nccc(NCCCCNc3ccnc4cc(Cl)ccc34)n2)cc1)N1CCCCC1 — outcome?
Ans. false

Qu. Please share the test call associated with NCCCNc1nc2ccccc2c2c(=O)c3cc(F)cc(Cl)c3sc12 .
Ans. false

Qu. Outcome? C=C1C(O)C2CC(C)(C)C(=O)C2=C(CC(C)C)C12CC2 (stereo unspecified)
Ans. false

---
Qu. Dear colleague, could you share the recorded outcome for CC(=O)[CH-]C(=O)c1ccccc1.CC(=O)[CH-]C(=O)c1ccccc1.CC(=O)[CH-]C(=O)c1ccccc1.[Br-].[Zr+4] when you have a moment?
Ans. false

Qu. I would be grateful if you could indicate the recorded call for Cc1cn2c(/C=C3\C(=O)N(C)c4ccc(Cl)cc43)c(C)nc2s1 .
Ans. false

Qu. Outcome? Clc1ccc(N2N=C(c3cccc(Nc4ccncc4)c3)CC2c2ccc(Br)cc2)cc1 (stereo unspecified)
Ans. false

* * *

Test system: MDA-MB-435
Experiment: NCI tumour cell line growth inhibition, 48 h
The reader will find reported TGI values listed item by item below.
Field format: number, assumed µM, no unit text.

Answered cases to consult:
Qu. Item CC(=O)c1cccc(Nc2nc3ccccc3c3[nH]c4ccccc4c23)c1 has what recorded TGI?
Ans. 71.1

Qu. What value of TGI has been reported for the following compound? COc1cc(-c2ccccc2)cn2c1nc1ccccc12
Ans. 43.4

---
Qu. Given the entry Cc1cc(OCc2nn(CN3CCN(C)CC3)c(=S)n2/N=C/c2ccc(F)cc2)ccc1Cl , report its measured TGI.
Ans. 36.2

Qu. # get_value(readout='TGI', item= C=CCN1C(=O)[C@]2(SC1=S)[C@H](c1cccc(Cl)c1)CN(C)[C@]21C(=O)NC2C=CC(Cl)=C[C@H]21 (stereo partly specified) )
Ans. 21.5

Qu. What does the record list as TGI for CCOC(=O)c1cc(C(=O)c2cc(OC)c(OC)c(OC)c2)n2ccc(-c3cc[n+](CC(=O)c4cc(OC)c(OC)c(OC)c4)cc3)cc12 ?
Ans. 3.85

Qu. Which TGI is listed for CC(C)(C)OC(=O)C1/C(=C/CBr)CN1C(=O)OC(C)(C)C (stereo unspecified) ?
Ans. 29.7

Qu. Please look up its TGI: C=C1C(=O)O[C@H]2[C@H]1CC/C(COC(=O)N[C@H](Cc1c[nH]c3ccccc13)C(=O)OC)=C\CC[C@@]1(C)O[C@@H]21
Ans. 10

Qu. Looking for the measured TGI of Nc1no[n+]([O-])c1-c1nnc2c(n1)-c1ccccc1C2=O , can you help?
Ans. 3.82
